Biological target: CCR2 (Homo sapiens (Human), UniProt P41597)
Sequence (P41597 whole entry): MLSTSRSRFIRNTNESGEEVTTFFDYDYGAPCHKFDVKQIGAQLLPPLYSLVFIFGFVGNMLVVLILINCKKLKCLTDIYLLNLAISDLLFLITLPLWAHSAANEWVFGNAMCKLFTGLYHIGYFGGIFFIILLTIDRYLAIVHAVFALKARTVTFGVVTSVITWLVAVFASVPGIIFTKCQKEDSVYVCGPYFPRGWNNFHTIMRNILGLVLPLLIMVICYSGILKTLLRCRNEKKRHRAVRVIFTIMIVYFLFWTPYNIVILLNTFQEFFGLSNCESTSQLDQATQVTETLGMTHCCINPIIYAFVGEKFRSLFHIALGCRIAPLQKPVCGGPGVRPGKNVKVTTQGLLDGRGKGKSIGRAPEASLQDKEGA
Assay: MCP-1 Receptor Binding Assay in THP-1 Cells
Conditions: 0.5 nM 125I labeled MCP-1, 2 hours at 30° C., read-out: Inhibition of MCP-1 Binding IC50 MCP1B
OBSERVABLE: pIC50
By convention, pIC50 is the negative base-10 log of a molar concentration.

CC(C)C(O)[C@H]1CC[C@@H](N2CC(NC(=O)CNc3nccc4ccc(C(F)(F)F)cc34)C2)CC1 (some centres unmarked) [Example 169]: 7.46

Ask | Let me know recorded pIC50 for O=C(CNc1ccnc2ccc(C(F)(F)F)cc12)NC1CN([C@H]2CC[C@@H](n3ccccc3=O)CC2)C1 [Example 58] , thanks.
Reply | 7.04

Ask | Let me know recorded pIC50 for O=C(CNc1ncnc2ccc(C(F)(F)F)cc12)NC1CN([C@H]2CC[C@@H](C3CCCC(=O)N3)CC2)C1 (some centres unmarked) [Example 13] , thanks.
Reply | 8.00

----------
Biological target: CCR2 (Homo sapiens (Human), UniProt P41597)
Test: MCP-1 Receptor Binding Assay in THP-1 Cells
Settings: 0.5 nM 125I labeled MCP-1, 2 hours at 30° C., read-out: Inhibition of MCP-1 Binding IC50 MCP1B
OBSERVABLE: pIC50
By convention, pIC50 is the negative base-10 log of a molar concentration.

Take a look at these entries with their results.
CC(C)[C@H]1CC[C@@H](N2CC(NC(=O)CNc3ncnc4ccc(C(F)(F)F)cc34)C2)CC1 [Example 117]: 7.00
O=C(CNc1ncnc2ccc(C(F)(F)F)cc12)NC1CN([C@H]2CC[C@@H](C(O)c3cncs3)CC2)C1 (stereo partly shown) [Example 99]: 7.72
O=C(CNc1ncnc2ccc(C(F)(F)F)cc12)NC1CN([C@H]2CC[C@@H](C3CCCCC3)CC2)C1 [Example 102]: 6.06

Ask | Let me know recorded pIC50 for Cc1ccc([C@]2(O)CC[C@H](N3CC(NC(=O)CNc4ncnc5ccc(C(F)(F)F)cc45)C3)CC2)cn1 [Example 75] , thanks.
Reply | 7.96

Ask | Let me know recorded pIC50 for O=C(CNc1ncnc2ccc(C(F)(F)F)cc12)NC1CN([C@H]2CC[C@@H](C3C=CCO3)CC2)C1 (stereo partly shown) [Example 10] , thanks.
Reply | 8.05

Ask | Let me know recorded pIC50 for CC(=O)N(C[C@H]1CC[C@@H](N2CC(NC(=O)CNc3ncnc4ccc(C(F)(F)F)cc34)C2)CC1)C(C)C [Example 115] , thanks.
Reply | 6.47

Ask | Let me know recorded pIC50 for O=C(CNc1ncnc2ccc(C(F)(F)F)cc12)NC1CN(C2CCC(C(F)(F)F)CC2)C1 (stereo not shown) [Example 123] , thanks.
Reply | 6.89

----------
Molecular target: CCR2 (Homo sapiens (Human))
Test: MCP-1 Receptor Binding Assay in THP-1 Cells
Details: 0.5 nM 125I labeled MCP-1, 2 hours at 30° C., read-out: Inhibition of MCP-1 Binding IC50 MCP1B
API: label(entry) gives MET if the entry's IC50 is strictly smaller than 200 nM; on equality or larger values it gives NOT MET.

A selection of reference data follows.
O=C(CNc1ncnc2ccc(C(F)(F)F)cc12)NC1CN([C@H]2CC[C@@H](N3CCS(=O)(=O)CC3)CC2)C1: MET
COCC(O)[C@H]1CC[C@@H](N2CC(NC(=O)CNc3ncnc4ccc(C(F)(F)F)cc34)C2)CC1 (some centres unmarked): MET
CC(C)[C@H](O)C1CCC(N2CC(NC(=O)CNc3ncnc4ccc(C(F)(F)F)cc34)C2)CC1 (single isomer, unassigned; (+)) [(+) 8]: MET
CN(CC(=O)NC1CN([C@H]2CC[C@@](O)(c3nccs3)CC2)C1)c1ncnc2ccc(C(F)(F)F)cc12: NOT MET

Ask | Strictly below 200 nM in IC50? C=C(C)[C@H]1CC[C@@H](N2CC(NC(=O)CNc3ncnc4ccc(C(F)(F)F)cc34)C2)CC1
Reply | MET

Ask | Strictly below 200 nM in IC50? CCC(NC(=O)OC)[C@H]1CC[C@@H](N2CC(NC(=O)CNc3ncnc4ccc(C(F)(F)F)cc34)C2)CC1 (some centres unmarked)
Reply | NOT MET

----------
Biological target: CCR2 (Homo sapiens (Human), UniProt P41597)
Assay: MCP-1 Receptor Binding Assay in THP-1 Cells
Conditions: 0.5 nM 125I labeled MCP-1, 2 hours at 30° C., read-out: Inhibition of MCP-1 Binding IC50 MCP1B
OBSERVABLE: IC50 (nM)
Answer format: numeric, nM implied, no suffix.

O=C(CNc1ncnc2ccc(C(F)(F)F)cc12)NC1CN([C@H]2CC[C@@H](C3CCCC3)CC2)C1: 140
CON(C)C(=O)C1CCC(N2CC(NC(=O)CNc3ncnc4ccc(C(F)(F)F)cc34)C2)CC1 (stereo not shown): 91
CC[C@@H](O)[C@H]1CC[C@@H](N2CC(NC(=O)CNc3nccc4ncc(C(F)(F)F)cc34)C2)CC1 (stereo in doubt): 430
CC(C)C(=O)N(C)[C@H]1CC[C@@H](N2CC(NC(=O)CNc3ncnc4ccc(C(F)(F)F)cc34)C2)CC1: 510

Kindly review the next compound as well.
Ask | Let me know recorded IC50 for CCC(NC(=O)OC)[C@H]1CC[C@@H](N2CC(NC(=O)CNc3ncnc4ccc(C(F)(F)F)cc34)C2)CC1 (stereo partly shown) , thanks.
Reply | 640

----------
Target: CCR2 (Homo sapiens (Human), UniProt P41597)
Experiment: MCP-1 Receptor Binding Assay in THP-1 Cells;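 further: THP-1 is a human monocytic cell line, and nonspecific binding was defined with 1 µM unlabeled MCP-1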
Settings: 0.5 nM 125I labeled MCP-1, 2 hours at 30° C., read-out: Inhibition of MCP-1 Binding IC50 MCP1B
pIC50: −log10 of the molar value.
Please use MET whenever pIC50 is not below 7, and NOT MET whenever it is.

A selection of reference data follows.
N#Cc1cc(NCC(=O)N[C@H]2C[C@@H](N3CCC(O)(c4cncs4)CC3)C2)c2cc(C(F)(F)F)ccc2n1: NOT MET
O=C1CCC(N2CC(NC(=O)CNc3ncnc4ccc(C(F)(F)F)cc34)C2)CC1: NOT MET
N#Cc1cc(NCC(=O)N[C@H]2C[C@H](N3CCC(O)(c4cncs4)CC3)C2)c2cc(C(F)(F)F)ccc2n1: NOT MET

Ask | Say whether O=C(CNc1ncnc2ccc(C(F)(F)F)cc12)NC1CN([C@H]2CC[C@@H]([C@@H](O)C3CC3)CC2)C1 [(+) 4] shows pIC50 of 7 or more.
Reply | MET

----------
Recorded IC50 by entry
Molecular target: CCR2 (Homo sapiens (Human))
Assay: MCP-1 Receptor Binding Assay in THP-1 Cells
Details: 0.5 nM 125I labeled MCP-1, 2 hours at 30° C., read-out: Inhibition of MCP-1 Binding IC50 MCP1B
Answer format: numeric, nM implied, no suffix.

O=C(CNc1cc(C(F)(F)F)nc2ccc(C(F)(F)F)cc12)NC1CN([C@H]2CC[C@@](O)(c3nccs3)CC2)C1: 28

Ask | Let me know recorded IC50 for CC(C)[C@H](O)C1CCC(N2CC(NC(=O)CNc3ncnc4ccc(C(F)(F)F)cc34)C2)CC1 (single isomer, unassigned; (-)) [(−) 8] , thanks.
Reply | 10

Ask | Let me know recorded IC50 for [N-]=[N+]=NCC(O)[C@H]1CC[C@@H](N2CC(NC(=O)CNc3ncnc4ccc(C(F)(F)F)cc34)C2)CC1 (stereo partly shown) , thanks.
Reply | 16

Ask | Let me know recorded IC50 for O=C(CNc1ncnc2ccc(C(F)(F)F)cc12)NC1CN([C@H]2CC[C@@H](CO)CC2)C1 , thanks.
Reply | 58

Ask | Let me know recorded IC50 for O=C(CNc1ncnc2ccc(C(F)(F)F)cc12)NC1CN([C@H]2CC[C@@H](N3CCC(F)(F)C3)CC2)C1 , thanks.
Reply | 300

Ask | Let me know recorded IC50 for [2H][C@]1(N2CC(NC(=O)CNc3ncnc4ccc(C(F)(F)F)cc34)C2)CC[C@@H](C(O)C2CC2)CC1 (stereo partly shown) , thanks.
Reply | 14

Ask | Let me know recorded IC50 for CCC(=O)N(C)[C@H]1CC[C@@H](N2CC(NC(=O)CNc3ncnc4ccc(C(F)(F)F)cc34)C2)CC1 , thanks.
Reply | 390

----------
Target: UniProt P41597
Test: MCP-1 Receptor Binding Assay in THP-1 Cells
Conditions: 0.5 nM 125I labeled MCP-1, 2 hours at 30° C., read-out: Inhibition of MCP-1 Binding IC50 MCP1B
OBSERVABLE: pIC50
By convention, pIC50 is the negative base-10 log of a molar concentration.

CCCC(=O)N(C)[C@H]1CC[C@@H](N2CC(NC(=O)CNc3ncnc4ccc(C(F)(F)F)cc34)C2)CC1: 6.09
O=C(CNc1ncnc2ccc(C(F)(F)F)cc12)NC1CN([C@H]2CC[C@@H](C3CCOCC3)CC2)C1: 6.80
O=C(CNc1ncnc2ccc(C(F)(F)F)cc12)NC1CN([C@H]2CC[C@@H](C(=O)N3CCCC3)CC2)C1: 6.00
O=C(CNc1ncnc2ccc(C(F)(F)F)cc12)NC1CN([C@H]2CC[C@@H](CNC(=O)C(F)(F)F)CC2)C1: 7.09
CC[C@@H](O)[C@H]1CC[C@H](N2CC(NC(=O)CNc3nncc4ccc(C(F)(F)F)cc34)C2)CC1: 5.22
CC1CCC(N2CC(NC(=O)CNc3ncnc4ccc(C(F)(F)F)cc34)C2)CC1 (centres unmarked): 7.09

Ask | Let me know recorded pIC50 for CC(=O)N(C)[C@H]1CC[C@@H](N2CC(NC(=O)CNc3ncnc4ccc(C(F)(F)F)cc34)C2)CC1 , thanks.
Reply | 6.28

Ask | Let me know recorded pIC50 for CN(C(=O)OCc1ccccc1)[C@H]1CC[C@@H](N2CC(NC(=O)CNc3ncnc4ccc(C(F)(F)F)cc34)C2)CC1 , thanks.
Reply | 6.68

Ask | Let me know recorded pIC50 for O=C(CNc1cnnc2ccc(C(F)(F)F)cc12)NC1CN([C@H]2CC[C@@](O)(c3cncs3)CC2)C1 , thanks.
Reply | 8.04

Ask | Let me know recorded pIC50 for CCC(N)[C@H]1CC[C@@H](N2CC(NC(=O)CNc3ncnc4ccc(C(F)(F)F)cc34)C2)CC1 (some centres unmarked) , thanks.
Reply | 7.40

Ask | Let me know recorded pIC50 for C=C(C)C(O)[C@H]1CC[C@@H](N2CC(NC(=O)CNc3ncnc4ccc(C(F)(F)F)cc34)C2)CC1 (some centres unmarked) , thanks.
Reply | 7.12

Ask | Let me know recorded pIC50 for O=C(CNc1ncnc2ccc(C(F)(F)F)cc12)NC1CN([C@H]2CC[C@@H](N3CCCCC3=O)CC2)C1 , thanks.
Reply | 6.26

Ask | Let me know recorded pIC50 for CCC(NC(N)=O)[C@H]1CC[C@@H](N2CC(NC(=O)CNc3ncnc4ccc(C(F)(F)F)cc34)C2)CC1 (some centres unmarked) , thanks.
Reply | 6.60

Ask | Let me know recorded pIC50 for CC(=O)NC[C@H]1CC[C@@H](N2CC(NC(=O)CNc3ncnc4ccc(C(F)(F)F)cc34)C2)CC1 , thanks.
Reply | 7.43

Ask | Let me know recorded pIC50 for CCC(O)[C@H]1CC[C@@H](N2CC(NC(=O)CNc3ncnc4ccc(C(F)(F)F)cc34)C2)CC1 (some centres unmarked) , thanks.
Reply | 7.68

Ask | Let me know recorded pIC50 for O=C(CNc1ncnc2ccc(C(F)(F)F)cc12)NC1CN([C@H]2CC[C@@H](N3CCCCO3)CC2)C1 , thanks.
Reply | 7.19

Ask | Let me know recorded pIC50 for O=C(CNc1ccnc2ccc(C(F)(F)F)cc12)NC1CN([C@H]2CC[C@@](O)(c3nccs3)CC2)C1 , thanks.
Reply | 7.77

Ask | Let me know recorded pIC50 for CSCC(O)[C@H]1CC[C@@H](N2CC(NC(=O)CNc3ncnc4ccc(C(F)(F)F)cc34)C2)CC1 (some centres unmarked) , thanks.
Reply | 8.00

Where these numbers come from: patent US9062048B2
